For each record, write down the corresponding MOR agonist activity, percent [35S]GTPγS binding at the stated compound concentration.
# System: mu opiate receptor (MOR)
# assay.protocol: MOR agonist activity using [35S]GTPγS binding assay in striatal membranes
# Format: biochemical
# study.conditions: Series B; 1 μM compound; [35S]GTPγS binding to Gαo, striatal membranes
Report as a plain number; the unit % is understood.

# input compound: COc1c2c(cc3c1C(CC(O)CCc1ccccc1)N(C)CC3)OCO2 (centres unmarked) ; wanted: its MOR agonist activity, percent [35S]GTPγS binding at the stated compound concentration
167.9

# lookup: MOR agonist activity, percent [35S]GTPγS binding at the stated compound concentration of COc1ccc(CCC(O)CC2c3c(cc4c(c3OC)OCO4)CC[N+]2(C)C)cc1 (centres unmarked)
364.0

Please report the recorded MOR agonist activity, percent [35S]GTPγS binding at the stated compound concentration for COc1cc(C(=O)CC2c3c(cc4c(c3OC)OCO4)CC[N+]2(C)C)cc(OC)c1OC (centres unmarked) .
186.0

Reported MOR agonist activity, percent [35S]GTPγS binding at the stated compound concentration, compound COc1c2c(cc3c1C(CC(=O)c1ccc(C#N)cc1)[N+](C)(C)CC3)OCO2 (centres unmarked) : ____
202.3

MOR agonist activity, percent [35S]GTPγS binding at the stated compound concentration for COc1ccc(C(=O)CC2c3c(cc4c(c3OC)OCO4)CC[N+]2(C)C)cc1 (centres unmarked) ?
285.9

Find the recorded MOR agonist activity, percent [35S]GTPγS binding at the stated compound concentration belonging to COc1ccc(C(=O)CC2c3c(cc4c(c3OC)OCO4)CC[N+]2(C)C)c(F)c1 (centres unmarked) and report it.
266.9

Return reported MOR agonist activity, percent [35S]GTPγS binding at the stated compound concentration; argument: COc1ccc(C(=O)CC2c3c(cc4c(c3OC)OCO4)CC[N+]2(C)C)cc1C (centres unmarked)
256.4

Which MOR agonist activity, percent [35S]GTPγS binding at the stated compound concentration reading was recorded for the compound COc1ccc(CCC(=O)CC2c3c(cc4c(c3OC)OCO4)CCN2C)cc1 (centres unmarked) ?
235.6
